TARGET_OF_ASSAY: human GLP-1R (Homo sapiens)
Construct: host or cells: HEK293
Sequence (P43220 24-463): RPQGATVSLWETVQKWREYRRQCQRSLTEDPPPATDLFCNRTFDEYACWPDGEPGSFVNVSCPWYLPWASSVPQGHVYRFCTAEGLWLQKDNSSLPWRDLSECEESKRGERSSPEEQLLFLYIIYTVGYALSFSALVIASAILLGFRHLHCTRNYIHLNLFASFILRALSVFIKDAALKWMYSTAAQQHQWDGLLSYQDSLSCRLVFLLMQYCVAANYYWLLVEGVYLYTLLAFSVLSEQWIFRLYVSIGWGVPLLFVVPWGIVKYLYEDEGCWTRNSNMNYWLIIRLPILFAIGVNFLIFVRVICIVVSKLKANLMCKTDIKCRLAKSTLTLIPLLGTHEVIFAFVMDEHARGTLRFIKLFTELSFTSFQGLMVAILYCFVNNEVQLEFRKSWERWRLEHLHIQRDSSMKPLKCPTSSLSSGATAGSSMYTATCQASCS
TEST_METHOD_NOTES: GLP-1R cAMP assay (Example B1a, HTRF, 30 min at room temperature)
Type: cell-based
RUN_CONDITIONS: cAMP accumulation in HEK293 expressing human GLP-1R, no BETP, 30 min room temperature (Method B1a, compounds ID 1-609), Table 1; read-out: EC50
MEASURED_PROPERTY: EC50

[
  {
    "MOLECULE": "Cc1cc(-n2nc3c(c2-n2ccn(-c4ccc5c(cnn5C)c4F)c2=O)[C@H]2CC[C@@H](C3)N2C(=O)c2cc3cc([C@@H]4CCOC5(CC5)C4)ccc3n2[C@@]2(c3noc(=O)[nH]3)C[C@H]2C)cc(C)c1F",
    "MEASURED_PROPERTY": "EC50",
    "RESULT": "≥ 10 µM"
  },
  {
    "MOLECULE": "Cc1cc(-n2nc3c(c2-n2ccn(-c4ccc5c(cnn5C)c4F)c2=O)[C@@H]2CC[C@H](C3)N2C(=O)c2cc3cc([C@@H]4CCOC5(CC5)C4)ccc3n2[C@]2(c3noc(=O)[nH]3)C[C@@H]2C)cc(C)c1F",
    "MEASURED_PROPERTY": "EC50",
    "RESULT": "≥ 10 µM"
  },
  {
    "MOLECULE": "Cc1cc(-n2nc3c(c2-n2ccn(-c4ccc5c(cnn5C)c4F)c2=O)[C@@H]2CC[C@H](C3)N2C(=O)c2cc3sc(C4CCOC(C)(C)C4)nc3cc2C2(c3noc(=O)[nH]3)CC2)cc(C)c1F (stereo partly shown)",
    "MEASURED_PROPERTY": "EC50",
    "RESULT": "> 10 µM"
  }
]

Now for the molecule whose EC50 we want.
Reported EC50 for Cc1cc(-n2nc3c(c2-n2ccn(-c4ccc5c(cnn5C)c4F)c2=O)[C@H]2CC[C@@H](C3)N2C(=O)c2cc3cc([C@@H]4CCOC5(CC5)C4)ccc3n2[C@@]2(c3noc(=O)[nH]3)C[C@@H]2C)cc(C)c1F : what is it? ≥ 10 µM
